# credit: patent US20100160321A1

We begin with a simple list: items and their reported Enzyme activity pIC50.
- experimental-system: histone deacetylase (HeLa nuclear extracts)
- experimental-protocol: In vitro assay for inhibition of histone deacetylase (HDAC Fluorescent Activity Assay, Fluor de Lys)
- Format: biochemical
- run-conditions: HeLa nuclear extracts 60 μg/ml, 75 μM Fluor de Lys substrate, example C.1
observable: Enzyme activity pIC50

O=C(NO)c1cnc(N2CCC(Cn3ccn(-c4cccc(C(F)(F)F)c4)c3=O)CC2)nc1 [Compound 23] | 7.2
COc1ccc(-n2ccn(CC3CCN(c4ncc(C(=O)NO)cn4)CC3)c2=O)cc1 [Compound 28] | 7.6
O=C(NO)c1cnc(N2CCC(Cn3ccn(-c4ccc(Oc5ccccc5)cc4)c3=O)CC2)nc1 [Compound 2] | 7.5
CC1C(=O)N(c2ccc(C#N)cc2)C(=O)N1CC1CCN(c2ncc(C(=O)NO)cn2)CC1 (stereo not shown) [Compound 36] | 7.0
